Test: self-splicing fitness, log relative to wild type (ln ratio); higher = more splicing; Tetrahymena group I intron in knt gene, E. coli kanamycin selection, DiMSum; sequences stand for … in CUCUCU…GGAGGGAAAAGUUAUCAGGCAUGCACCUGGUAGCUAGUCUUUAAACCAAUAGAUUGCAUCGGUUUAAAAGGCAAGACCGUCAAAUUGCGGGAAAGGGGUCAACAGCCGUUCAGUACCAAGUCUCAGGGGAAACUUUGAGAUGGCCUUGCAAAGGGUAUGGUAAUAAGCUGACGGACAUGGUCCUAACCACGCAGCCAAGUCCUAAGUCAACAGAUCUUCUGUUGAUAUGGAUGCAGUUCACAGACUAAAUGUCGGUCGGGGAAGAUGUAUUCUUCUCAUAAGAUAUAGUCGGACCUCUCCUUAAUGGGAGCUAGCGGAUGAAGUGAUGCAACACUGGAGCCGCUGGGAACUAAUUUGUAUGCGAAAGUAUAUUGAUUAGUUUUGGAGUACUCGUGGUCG;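 also: selection with 25 µg/mL kanamycin versus none on LB agar overnight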
Details: 37 °C
Returns the class for an entry based on its self-splicing fitness (ln). Class ranges: one = under -2, two = from -2 up to -0.8, three = -0.8 and over

Illustrative cases are given below, each with its answer.
>  <Sequence data>
AUAGAGCAAUAUUACGUACA

>  <Assigned label>
two

$$$$
>  <Sequence data>
GACAAGCAAUAUUACGGAAU

>  <Assigned label>
two

$$$$
>  <Sequence data>
AUAUAGCAAUAUUACGGCAG

>  <Assigned label>
two

$$$$
>  <Sequence data>
GACUAGCAAUAUUACGCCCG

>  <Assigned label>
three

$$$$
>  <Sequence data>
UAUAAGCAAUAUUACGUACA

>  <Assigned label>
three

$$$$

Asked: Band of `UAUAAGCAAUAUUACGUGGA` ?
Given back: two

Asked: Band of `CGAGAGCAAUAUUACGCGAG` ?
Given back: two

Asked: Band of `UCGAAGCAAUAUUACGGCGU` ?
Given back: three

Asked: Band of `AAUGAGCAAUAUUACGGUUA` ?
Given back: two

Asked: Band of `AAAUAGCAAUAUUACGUCGU` ?
Given back: two

Asked: Band of `UAAAAGCAAUAUUACGCGAU` ?
Given back: one

Asked: Band of `AUAAAGCAAUAUUACGGAAA` ?
Given back: two

Asked: Band of `GAAUAGCAAUAUUACGACGC` ?
Given back: three

Asked: Band of `CAAUAGCAAUAUUACGACUA` ?
Given back: two

Asked: Band of `ACAAAGCAAUAUUACGGUAA` ?
Given back: two

Asked: Band of `CGCCAGCAAUAUUACGUACC` ?
Given back: one

Asked: Band of `CACGAGCAAUAUUACGAACG` ?
Given back: three

Asked: Band of `CCAAAGCAAUAUUACGAGGC` ?
Given back: one

Asked: Band of `AUGGAGCAAUAUUACGGUUC` ?
Given back: one

Asked: Band of `AUUUAGCAAUAUUACGGCUG` ?
Given back: three

Asked: Band of `GCGUAGCAAUAUUACGAUCA` ?
Given back: three

Asked: Band of `UUUGAGCAAUAUUACGUUAG` ?
Given back: two

Asked: Band of `AUAGAGCAAUAUUACGGCGA` ?
Given back: three

Asked: Band of `GCAAAGCAAUAUUACGCUUC` ?
Given back: one
